Source listed as PubChem BioAssay (NCATS).

Test: qHTS assay for small molecule antagonists of the retinoid-related orphan receptor gamma (ROR-gamma) signaling pathway - cell viability counter screen (AID 720652);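 note: compound exposure lasted 16 hr before ATP read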
Details: RORgamma reporter cell line viability counter screen; series mostly up to 92.2 µM
Inconclusive results are not listed. The source made the active and inactive calls. Calls come from the whole dose curve; as a rule, active = well fitted cell-killing curve with a large enough effect in the repeat runs; inconclusive = weak or mixed curves, or effect the other way; inactive = flat fitted curve, though single readings scatter. Numbered stars: 1 amine (or outer) side, 2 acyl side, 3 side chain; on linkers, the order of the positions; unused ones are H or OH. Bridge positions count the residues as written; N and C are the ends. Square brackets hold non-standard residues; d marks the D form. Peptide text beside a SMILES is read from it. I, II: the chains in the order shown. Actinocin(9to1) = Cc1c2oc3c(C)ccc(C(=O)[*:1])c3nc-2c(C(=O)[*:2])c(N)c1=O; NMeV = CN[C@H](C(=O)O)C(C)C; Sar = CNCC(=O)O
Outcome codes: active, inactive

[[record]]
compound = "Cc1c2oc3c(C)ccc(C(=O)N[C@@H]4C(=O)N[C@H](C(C)C)C(=O)N5CCC[C@H]5C(=O)N(C)CC(=O)N(C)[C@@H](C(C)C)C(=O)O[C@@H]4C)c3nc-2c(C(=O)N[C@@H]2C(=O)N[C@H](C(C)C)C(=O)N3CCC[C@H]3C(=O)N(C)CC(=O)N(C)[C@@H](C(C)C)C(=O)O[C@@H]2C)c(N)c1=O (I: T[dV]P[Sar][NMeV] / II: T[dV]P[Sar][NMeV]; ester I:1-I:C, II:1-II:C; linker I:N-II:N via Actinocin(9to1))"
category_label = "active"

[[record]]
compound = "Oc1c(Cl)cc(Cl)cc1Sc1cc(Cl)cc(Cl)c1O"
category_label = "inactive"

[[record]]
compound = "CC(C)(C)CC(C)(C)c1ccc(OCCOCC[N+](C)(C)Cc2ccccc2)cc1"
category_label = "inactive"

[[record]]
compound = "O=c1ccc2ccccc2o1"
category_label = "inactive"

[[record]]
compound = "COc1cccc2c1C(=O)c1c(O)c3c(c(O)c1C2=O)C[C@@](O)(C(=O)CO)C[C@@H]3O[C@H]1C[C@H](N)[C@H](O)[C@H](C)O1"
category_label = "active"

[[record]]
compound = "O=C(O)CCCCC(=O)O"
category_label = "inactive"

[[record]]
compound = "C=C(CC)C(=O)c1ccc(OCC(=O)O)c(Cl)c1Cl"
category_label = "inactive"

[[record]]
compound = "COc1cccc2c1C(=O)c1c(O)c3c(c(O)c1C2=O)C[C@@](O)(C(C)=O)C[C@@H]3O[C@H]1C[C@H](N)[C@H](O)[C@H](C)O1"
category_label = "active"

[[record]]
compound = "O=C1OC(c2ccc(O)cc2)(c2ccc(O)cc2)c2ccccc21"
category_label = "inactive"

[[record]]
compound = "NC(=NCCCCCCN=C(N)/N=C(\\N)Nc1ccc(Cl)cc1)/N=C(\\N)Nc1ccc(Cl)cc1"
category_label = "active"

[[record]]
compound = "COC1=CC(=O)C[C@@H](C)[C@]12Oc1c(Cl)c(OC)cc(OC)c1C2=O"
category_label = "inactive"


###

System: KB-3-1
Assay: Cytotoxic Profiling of Annotated Libraries Using Quantitative High-Throughput Screening (AID 1296008); note: % is set by controls: 0 for no effect and ±100 for the full control effect; nearly all actives have a fitted effect of over 60% in size
Settings: Five cell lines viability, CellTiter-Glo ATP luminescence, 48-72 h; stronger effect = lower value
Inconclusive results are not listed.
Listed here are compounds together with their documented max response.
property.label: max response (%)

[[record]]
given_smiles = "CCCSS/C(CCO)=C(\\C)N(C=O)Cc1cnc(C)nc1N"
measured = 33.8

[[record]]
given_smiles = "c1ccc(OCc2ccc(CCCN3CCOCC3)cc2)cc1"
measured = 2.12

[[record]]
given_smiles = "C1CCc2nnnn2CC1"
measured = 18.9

[[record]]
given_smiles = "CCN(CC)C(=O)/C(C#N)=C/c1cc(O)c(O)c([N+](=O)[O-])c1"
measured = 3.63

[[record]]
given_smiles = "CN(C)CCOc1ccccc1Cc1ccccc1"
measured = -14.6

[[record]]
given_smiles = "COc1c2occc2c(OC)c2c(=O)cc(C)oc12"
measured = 9.91

[[record]]
given_smiles = "CNCC[C@@H](Oc1ccccc1C)c1ccccc1"
measured = -7.4


###

Assay: qHTS assay for small molecule antagonists of retinoid X receptor alpha signaling (AID 588546);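 note: cells stimulated with 9-cis-retinoic acid as agonist; % is set by controls: 0 for no effect and ±100 for the full control effect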
Conditions: HEK293T RXRa-UAS-bla, beta-lactamase ratio, antagonist mode; measured here: W530 green channel, cytotoxicity proxy
Inconclusive results are not listed.
property.label: max response (%)

[[record]]
compound = "CN(C)/N=N/c1nc[nH]c1C(N)=O"
unit_info = "%"
measured = -0.507

[[record]]
compound = "Cc1cc(=O)n(-c2ccccc2)n1C"
unit_info = "%"
measured = -18.2

[[record]]
compound = "CC(O)C(=O)O (centres undefined)"
unit_info = "%"
measured = 7.59

[[record]]
compound = "O=C1OC(c2ccc(O)cc2)(c2ccc(O)cc2)c2ccccc21"
unit_info = "%"
measured = 6.51


###

# key: entry, value: Potency
Assay: Cell Viability - Jurkat (AID 426);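 note: potency is the fitted concentration of half-maximal effect; cells exposed to compound for 40 hours at 37 °C before ATP read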
Conditions: qHTS
Inconclusive results are not listed. Calls of active or inactive are those of the source.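 How the source made its calls: active means dose-dependent loss of cell ATP signal giving a full or clear fitted curve, ranked by lower potency value; inconclusive means weak partial curve or response only at the top dose; inactive means no loss of viability signal.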 Numbered stars: 1 amine (or outer) side, 2 acyl side, 3 side chain; on linkers, the order of the positions; unused ones are H or OH. Bridge positions count the residues as written; N and C are the ends. Square brackets hold non-standard residues; d marks the D form. Peptide text beside a SMILES is read from it. I, II: the chains in the order shown. Actinocin(9to1) = Cc1c2oc3c(C)ccc(C(=O)[*:1])c3nc-2c(C(=O)[*:2])c(N)c1=O; NMeV = CN[C@H](C(=O)O)C(C)C; Sar = CNCC(=O)O
property.label: Potency

[[record]]
compound = "COc1cccc2c1C(=O)c1c(O)c3c(c(O)c1C2=O)C[C@@](O)(C(=O)CO)C[C@@H]3O[C@H]1C[C@H](N)[C@H](O)[C@H](C)O1"
property_label = "Potency"
measured = "21.8 nM (active)"

[[record]]
compound = "Cc1c2oc3c(C)ccc(C(=O)N[C@@H]4C(=O)N[C@H](C(C)C)C(=O)N5CCC[C@H]5C(=O)N(C)CC(=O)N(C)[C@@H](C(C)C)C(=O)O[C@@H]4C)c3nc-2c(C(=O)N[C@@H]2C(=O)N[C@H](C(C)C)C(=O)N3CCC[C@H]3C(=O)N(C)CC(=O)N(C)[C@@H](C(C)C)C(=O)O[C@@H]2C)c(N)c1=O (I: T[dV]P[Sar][NMeV] / II: T[dV]P[Sar][NMeV]; ester I:1-I:C, II:1-II:C; linker I:N-II:N via Actinocin(9to1))"
property_label = "Potency"
measured = "1.5 nM (active)"

[[record]]
compound = "Oc1ccc(O)cc1"
property_label = "Potency"
measured = "4410 nM (active)"


###

Test: qHTS of pediatric cancer cell lines to identify multiple opportunities for drug repurposing: Primary screen for OHS-50 cells (AID 1347103); note: nearly all actives have a fitted effect of over 40% in size
Conditions: OHS-50 osteosarcoma viability, CellTiter-Glo luminescence, 48 h; series mostly up to 57.3 µM
Method: Drug repurposing or repositioning has been offered as a strategy for drug development in oncology programs. […] [1] Shen, M et al. Quantitative high-throughput phenotypic screening of pediatric cancer cell lines identifies multiple opportunities for drug repurposing. […] Cells were assayed in growth media at a density of 500-1,000 cells/well. […] After a 15 min incubation at room temperature, samples were analyzed for luminescence intensity using a ViewLux High-throughput CCD imager equipped with clear filters.
Records with an inconclusive call do not appear. The source made the active and inactive calls. The call rests on the fitted dose curve; in most records, active means well fitted cell-killing curve with a large enough effect; inconclusive means small, poorly fitted or top-dose-only effect; inactive means no such curve, though single readings can be large or run the other way.
Classes used: 1 (active), 0 (inactive)

[[record]]
compound = "Nc1nc2ncc(CNc3ccc(C(=O)N[C@@H](CCC(=O)O)C(=O)O)cc3)nc2c(=O)[nH]1"
category_label = 0

[[record]]
compound = "COc1cc(N)c(Cl)cc1C(=O)NC1CCN(CCCOc2ccc(F)cc2)CC1OC (stereo unspecified)"
category_label = 1

[[record]]
compound = "O=C1c2ccccc2C(=O)C1c1ccccc1"
category_label = 0

[[record]]
compound = "CN(C)C(=S)SC(=S)N(C)C"
category_label = 1

[[record]]
compound = "O=C(OCCOCCO)c1ccccc1Nc1cccc(C(F)(F)F)c1"
category_label = 1

[[record]]
compound = "CC1=C(C(=O)O)N2C(=O)[C@@H](NC(=O)[C@H](N)c3ccc(O)cc3)[C@H]2SC1"
category_label = 0


###

Test: Cell Viability - LYMP2-026 (AID 989);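 note: cells exposed to compound for 24 h at 37 °C; nearly all actives have a fitted effect of over 50% in size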; note: potency is the fitted concentration of half-maximal effect
Details: LYMP2-026 lymphoblastoid cell viability, qHTS; series mostly up to 92.2 µM
Inconclusive results are not listed. Calls of active or inactive are those of the source. The call rests on the fitted dose curve; in most records, active means well fitted cell-killing curve with a large enough effect; inconclusive means small, poorly fitted or top-dose-only effect; inactive means flat fitted curve, though single readings scatter.
property.label: Potency

[[record]]
compound = "CC(C)(C)CC(C)(C)c1ccc(OCCOCC[N+](C)(C)Cc2ccccc2)cc1"
measured = "31.6 µM (active)"

[[record]]
compound = "CC(O)C(=O)O (stereo not given)"
measured = "inactive"

[[record]]
compound = "NC(=NCCCCCCN=C(N)/N=C(\\N)Nc1ccc(Cl)cc1)/N=C(\\N)Nc1ccc(Cl)cc1"
measured = "50.1 µM (active)"

[[record]]
compound = "CC(=O)Oc1ccc(C(c2ccc(OC(C)=O)cc2)c2ccccn2)cc1"
measured = "inactive"

[[record]]
compound = "COc1cccc2c1C(=O)c1c(O)c3c(c(O)c1C2=O)C[C@@](O)(C(=O)CO)C[C@@H]3O[C@H]1C[C@H](N)[C@H](O)[C@H](C)O1"
measured = "0.501 µM (active)"

[[record]]
compound = "COC1=CC(=O)C[C@@H](C)[C@]12Oc1c(Cl)c(OC)cc(OC)c1C2=O"
measured = "inactive"

[[record]]
compound = "Oc1ccc(O)cc1"
measured = "inactive"

[[record]]
compound = "C[C@]12CC[C@@H]3c4ccc(O)cc4CC[C@H]3[C@@H]1CC[C@@H]2O"
measured = "inactive"

[[record]]
compound = "Nc1ccc(C(=O)O)cc1"
measured = "inactive"

[[record]]
compound = "CCCCCCc1ccc(O)cc1O"
measured = "inactive"

